Target or system Sphingosine kinase 1 (Homo sapiens); recorded quantity IC50.
assay.metric: IC50 (µM)

CCCCCCCCc1ccc(CCNC(=O)[C@H]2NCC[C@@H]2O)cc1    6.2
CCCCCCCCc1ccc(NC(=O)C(N)C(C)(C)O)cc1 (racemic)    2.1
CCCCCCCCc1ccc(CNC(=O)[C@H]2NCC[C@@H]2O)cc1    0.43
CCCCCCCCc1ccc(NC(=O)[C@@H](N)[C@@H](C)O)cc1    0.65

* * *

molecular target: Sphingosine kinase 2 (Homo sapiens); test: Inhibition of sphingosine kinase 2 at 10 uM
The source made the active and inactive calls. The rule behind the calls is not given here.
assay.metric: inhibition

CCCCCCCCc1ccc(NC(=O)C(C)(N)CO)cc1 (racemic)    inactive
CCCCCCCCc1ccc(NC(=O)C(N)CCCO)cc1 (racemic)    inactive
CCCCCCCCc1ccc(NC(=O)[C@@H](N)CCO)cc1    inactive
